tested on: 653999-131-R-J2-PDC complex spheroids, growth % test/control; assay: Anticancer human tumor 653999-131-R-J2-PDC patient-derived lung adenocarcinoma cell line growth inhibition [AhR]; settings: curve of first compound; second compound 0.1 µM
Measure Name: IC50

The compound identified as COc1cccc2c1C(=O)c1c(O)c3c(c(O)c1C2=O)CC(O)(C(=O)CO)CC3OC1CC(N)C(O)C(C)O1 (stereo not drawn) + Cc1ccccc1N=Nc1ccc(NC(=O)c2ccnn2C)c(C)c1 registered its IC50 at < 0.0316 µM

The compound identified as CC(C)c1c(-c2ccccc2)nc2c(C#N)c[nH]n2c1=O + Cc1cncc(-c2nc(NCCc3c[nH]c4ccccc34)c3ncn(C(C)C)c3n2)c1 registered its IC50 at > 10 µM

The compound identified as O=C(c1cc(Cc2n[nH]c(=O)c3ccccc23)ccc1F)N1CCN(C(=O)C2CC2)CC1 + Cc1cncc(-c2nc(NCCc3c[nH]c4ccccc34)c3ncn(C(C)C)c3n2)c1 registered its IC50 at > 10 µM

====

tested on: 653999-131-R-J2-PDC complex spheroids, growth % test/control; assay: Anticancer human tumor 653999-131-R-J2-PDC cell line growth inhibition [AhR]; details: second compound 3.16 µM; first compound 0.003 µM; stronger effect = lower value;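 also: spheroids exposed to agents for seven days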;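 as to viability, T/C: 100% = DMSO vehicle control viability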
Provide the recorded viability, T/C for the entries that follow.
Report only the number, with the unit % understood.

The compound identified as Nc1ncn(C2CC(O)C(CO)S2)c(=O)n1 (stereo not drawn) + CC(CO)NC(=O)c1cc(-c2ccc(Cl)cc2)nn(-c2cnn(C)c2)c1=O registered its viability, T/C at 101

The compound identified as Nc1ncn(C2CC(O)C(CO)S2)c(=O)n1 (stereo not drawn) + Cc1cncc(-c2nc(NCCc3c[nH]c4ccccc34)c3ncn(C(C)C)c3n2)c1 registered its viability, T/C at 87.8

The compound identified as CCc1c2c(nc3ccc(O)cc13)-c1cc3c(c(=O)n1C2)COC(=O)[C@]3(O)CC + Cc1cncc(-c2nc(NCCc3c[nH]c4ccccc34)c3ncn(C(C)C)c3n2)c1 registered its viability, T/C at 58.1

====

tested on: 653999-131-R-J2-PDC complex spheroids, growth % test/control; test: Anticancer human tumor 653999-131-R-J2-PDC cell line growth inhibition [AhR]; settings: curve of first compound; second compound 0.1 µM;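 also: spheroids exposed to agents for seven days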
Measure Name: pIC50
Conceptually, pIC50 converts a concentration in mol/L into minus its log10.

# pIC50 measured on 653999-131-R-J2-PDC complex spheroids, growth % test/control for item O=C(C=Cn1cnc(-c2cc(C(F)(F)F)cc(C(F)(F)F)c2)n1)NNc1cnccn1 + CC(CO)NC(=O)c1cc(-c2ccc(Cl)cc2)nn(-c2cnn(C)c2)c1=O = 6.12

# pIC50 measured on 653999-131-R-J2-PDC complex spheroids, growth % test/control for item COc1ccc([C@@H](O)c2cc(-c3ncnc4cc(N5CCOCC5)ccc34)c(F)cc2Cl)nn1 + CC(CO)NC(=O)c1cc(-c2ccc(Cl)cc2)nn(-c2cnn(C)c2)c1=O = 5.07

# pIC50 measured on 653999-131-R-J2-PDC complex spheroids, growth % test/control for item CC1COCCN1c1cc(-c2ccnn2C)c2ccnc(-c3ccn[nH]3)c2n1 (stereo not given) + Cc1cncc(-c2nc(NCCc3c[nH]c4ccccc34)c3ncn(C(C)C)c3n2)c1 = 6.91

# pIC50 measured on 653999-131-R-J2-PDC complex spheroids, growth % test/control for item CC[C@@]1(O)C(=O)OCc2c1cc1n(c2=O)Cc2cc3c(CN(C)C)c(O)ccc3nc2-1 + Cc1ccccc1N=Nc1ccc(NC(=O)c2ccnn2C)c(C)c1 = 7.11

# pIC50 measured on 653999-131-R-J2-PDC complex spheroids, growth % test/control for item Nc1ccccc1NC(=O)c1ccc(CNC(=O)OCc2cccnc2)cc1 + Cc1cncc(-c2nc(NCCc3c[nH]c4ccccc34)c3ncn(C(C)C)c3n2)c1 = 5.53

# pIC50 measured on 653999-131-R-J2-PDC complex spheroids, growth % test/control for item CC1COCCN1c1cc(-c2ccnn2C)c2ccnc(-c3ccn[nH]3)c2n1 (stereo not given) + CC(CO)NC(=O)c1cc(-c2ccc(Cl)cc2)nn(-c2cnn(C)c2)c1=O = 6.79

# pIC50 measured on 653999-131-R-J2-PDC complex spheroids, growth % test/control for item CCc1c2c(nc3ccc(O)cc13)-c1cc3c(c(=O)n1C2)COC(=O)[C@]3(O)CC + Cc1cncc(-c2nc(NCCc3c[nH]c4ccccc34)c3ncn(C(C)C)c3n2)c1 = 8.37

# pIC50 measured on 653999-131-R-J2-PDC complex spheroids, growth % test/control for item O=C(C=Cn1cnc(-c2cc(C(F)(F)F)cc(C(F)(F)F)c2)n1)NNc1cnccn1 + Cc1ccccc1N=Nc1ccc(NC(=O)c2ccnn2C)c(C)c1 = 6.08

# pIC50 measured on 653999-131-R-J2-PDC complex spheroids, growth % test/control for item COc1cc(C2c3cc4c(cc3C(OC3OC5COC(C)OC5C(O)C3O)C3COC(=O)C23)OCO4)cc(OC)c1O (stereo not given) + Cc1cncc(-c2nc(NCCc3c[nH]c4ccccc34)c3ncn(C(C)C)c3n2)c1 = 6.08

# pIC50 measured on 653999-131-R-J2-PDC complex spheroids, growth % test/control for item CC1COCCN1c1cc(C2(S(C)(=N)=O)CC2)nc(-c2ccnc3[nH]ccc23)n1 (stereo not given) + Cc1cncc(-c2nc(NCCc3c[nH]c4ccccc34)c3ncn(C(C)C)c3n2)c1 = 5.07

# pIC50 measured on 653999-131-R-J2-PDC complex spheroids, growth % test/control for item COc1cc(C2c3cc4c(cc3C(OC3OC5COC(C)OC5C(O)C3O)C3COC(=O)C23)OCO4)cc(OC)c1O (stereo not given) + CC(CO)NC(=O)c1cc(-c2ccc(Cl)cc2)nn(-c2cnn(C)c2)c1=O = 5.90

# pIC50 measured on 653999-131-R-J2-PDC complex spheroids, growth % test/control for item Nc1ccn(C2OC(CO)C(O)C2(F)F)c(=O)n1 (stereo not given) + CC(CO)NC(=O)c1cc(-c2ccc(Cl)cc2)nn(-c2cnn(C)c2)c1=O = 5.71

# pIC50 measured on 653999-131-R-J2-PDC complex spheroids, growth % test/control for item O=C(C=Cc1cccc(S(=O)(=O)Nc2ccccc2)c1)NO + Cc1ccccc1N=Nc1ccc(NC(=O)c2ccnn2C)c(C)c1 = 5.41

# pIC50 measured on 653999-131-R-J2-PDC complex spheroids, growth % test/control for item CC1COCCN1c1cc(C2(S(C)(=N)=O)CC2)nc(-c2ccnc3[nH]ccc23)n1 (stereo not given) + Cc1ccccc1N=Nc1ccc(NC(=O)c2ccnn2C)c(C)c1 = 5.05

====

tested on: 653999-131-R-J2-PDC complex spheroids, growth % test/control; test: Anticancer human tumor 653999-131-R-J2-PDC cell line growth inhibition [AhR]; conditions: second compound 10 µM; first compound 3.16 µM; active means viability on the fitted dose curve at most 10% of control; inactive means the rest;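 also: spheroids exposed to agents for seven days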
Select the matching outcome among active, inactive

Recorded test call requested for Nc1ccccc1NC(=O)c1ccc(CNC(=O)OCc2cccnc2)cc1 + Cc1cncc(-c2nc(NCCc3c[nH]c4ccccc34)c3ncn(C(C)C)c3n2)c1
inactive

Recorded test call requested for O=C(C=Cc1cccc(S(=O)(=O)Nc2ccccc2)c1)NO + Cc1ccccc1N=Nc1ccc(NC(=O)c2ccnn2C)c(C)c1
inactive

Recorded test call requested for COc1cccc2c1C(=O)c1c(O)c3c(c(O)c1C2=O)CC(O)(C(=O)CO)CC3OC1CC(N)C(O)C(C)O1 (centres undefined) + Cc1cncc(-c2nc(NCCc3c[nH]c4ccccc34)c3ncn(C(C)C)c3n2)c1
active

Recorded test call requested for Nc1ccccc1NC(=O)c1ccc(CNC(=O)OCc2cccnc2)cc1 + CC(CO)NC(=O)c1cc(-c2ccc(Cl)cc2)nn(-c2cnn(C)c2)c1=O
inactive

====

Provide the recorded viability, T/C for the entries that follow.
test system: 653999-131-R-J2-PDC complex spheroids, growth % test/control; assay: Anticancer human tumor 653999-131-R-J2-PDC cell line growth inhibition [AhR]; details: second compound 10 µM; first compound 1 µM; stronger effect = lower value;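 also: spheroids exposed to agents for seven days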;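 as to viability, T/C: 100% = DMSO vehicle control viability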

The compound identified as COc1cc(C2c3cc4c(cc3C(OC3OC5COC(C)OC5C(O)C3O)C3COC(=O)C23)OCO4)cc(OC)c1O (stereo not given) + Cc1cncc(-c2nc(NCCc3c[nH]c4ccccc34)c3ncn(C(C)C)c3n2)c1 registered its viability, T/C at 36.3%

The compound identified as CC1COCCN1c1cc(-c2ccnn2C)c2ccnc(-c3ccn[nH]3)c2n1 (stereo not given) + Cc1cncc(-c2nc(NCCc3c[nH]c4ccccc34)c3ncn(C(C)C)c3n2)c1 registered its viability, T/C at 27%

The compound identified as CC1COCCN1c1cc(C2(S(C)(=N)=O)CC2)nc(-c2ccnc3[nH]ccc23)n1 (stereo not given) + CC(CO)NC(=O)c1cc(-c2ccc(Cl)cc2)nn(-c2cnn(C)c2)c1=O registered its viability, T/C at 78%

The compound identified as Nc1ccn(C2OC(CO)C(O)C2(F)F)c(=O)n1 (stereo not given) + Cc1cncc(-c2nc(NCCc3c[nH]c4ccccc34)c3ncn(C(C)C)c3n2)c1 registered its viability, T/C at 43.4%

The compound identified as CC1(C)CCC(CN2CCN(c3ccc(C(=O)NS(=O)(=O)c4ccc(NCC5CCOCC5)c([N+](=O)[O-])c4)c(Oc4cnc5[nH]ccc5c4)c3)CC2)=C(c2ccc(Cl)cc2)C1 + CC(CO)NC(=O)c1cc(-c2ccc(Cl)cc2)nn(-c2cnn(C)c2)c1=O registered its viability, T/C at 105%

The compound identified as COc1ccc([C@@H](O)c2cc(-c3ncnc4cc(N5CCOCC5)ccc34)c(F)cc2Cl)nn1 + Cc1ccccc1N=Nc1ccc(NC(=O)c2ccnn2C)c(C)c1 registered its viability, T/C at 83.6%

The compound identified as Nc1ccn(C2OC(CO)C(O)C2(F)F)c(=O)n1 (stereo not given) + CC(CO)NC(=O)c1cc(-c2ccc(Cl)cc2)nn(-c2cnn(C)c2)c1=O registered its viability, T/C at 58%

The compound identified as COc1cc(Nc2ncc3c(n2)-c2ccc(Cl)cc2C(c2c(F)cccc2OC)=NC3)ccc1C(=O)O + Cc1ccccc1N=Nc1ccc(NC(=O)c2ccnn2C)c(C)c1 registered its viability, T/C at 71%

The compound identified as CC1(C)CCC(CN2CCN(c3ccc(C(=O)NS(=O)(=O)c4ccc(NCC5CCOCC5)c([N+](=O)[O-])c4)c(Oc4cnc5[nH]ccc5c4)c3)CC2)=C(c2ccc(Cl)cc2)C1 + Cc1ccccc1N=Nc1ccc(NC(=O)c2ccnn2C)c(C)c1 registered its viability, T/C at 88.9%

The compound identified as COc1cccc2c1C(=O)c1c(O)c3c(c(O)c1C2=O)CC(O)(C(=O)CO)CC3OC1CC(N)C(O)C(C)O1 (stereo not given) + Cc1ccccc1N=Nc1ccc(NC(=O)c2ccnn2C)c(C)c1 registered its viability, T/C at 16.3%

Taken from PubChem BioAssay AID1919000.
